assay notes: Toxicity in sheep erythrocytes assessed as hemolysis at 25 uM after 90 mins
Assay type: cell-based, Ovis aries, Erythrocyte
measurement conditions: read-out: Activity
assay metric: hemolysis at 1.5 h, 25 µM (%)
Answers are plain numbers, in %.

[in] May I ask what hemolysis at 1.5 h, 25 µM has been recorded for "C=CC(C)(C)c1cc(/C=C/C(=O)c2ccc(O)cc2)c(OC)cc1O" ?
[out] 11.6

---

Tested on: Staphylococcus aureus
assay notes: Antibacterial activity against methicillin-sensitive Staphylococcus aureus ATCC 13150 after 20 hrs by microdilution assay
Assay type: functional
measurement conditions: Staphylococcus aureus, ATCC 13150, 20 h; read-out: MIC
assay metric: MIC

Below, 4 compounds whose answers are already recorded.
COc1cc(OC)c(C2CCN(C)CC2)cc1C(=O)/C=C/c1ccc(N2CCN(C)CC2)cc1
> 100 µM
COc1ccc(/C=C/C(=O)c2cccc(N3CCCCC3)c2)c(OC)c1
> 100 µM
COc1cc(OC)c(C2CCN(C)CC2)c(O)c1C(=O)/C=C/c1ccc(C)cc1
6.25 µM
COc1cc(OC)c(C2CCN(C)CC2)cc1C(=O)/C=C/c1ccccn1
> 100 µM

Please report MIC for every entry that follows.
1. COc1cc(OC)c(C2CCN(C)CC2)cc1C(=O)/C=C/c1ccncc1
2. COc1cc(OC)c(C2CCN(C)CC2)cc1C(=O)/C=C/c1ccc(Cl)cc1
3. COc1cc(OC)c(C2CCN(C)CC2)c(O)c1C(=O)/C=C/c1ccc(Cl)cc1
4. COc1cc(OC)c(C2CCN(C)CC2)c(O)c1C(=O)/C=C/c1ccccc1Cl
5. CCN1CCC(c2cc(C(=O)/C=C/c3ccncc3)c(OC)cc2OC)CC1
6. C=CC(C)(C)c1cc(/C=C/C(=O)c2ccc(O)cc2)c(OC)cc1O [LICOAGROCHACONE A]
7. COc1cc(OC)c(N2CCC(N3CCCCC3)CC2)cc1C(=O)/C=C/c1ccccc1F
8. COc1ccc(C2CCN(C)CC2)cc1C(=O)/C=C/c1ccc(Cl)cc1

[out]
1: > 100 µM; 2: > 100 µM; 3: 25 µM; 4: 50 µM; 5: > 100 µM; 6: 6.3 µM; 7: > 100 µM; 8: > 100 µM

Dear reader, for each entry below, please note its MIC.
1. COc1ccccc1/C=C/C(=O)c1cc(C2CCN(C)CC2)c(OC)cc1OC
2. COc1cc(OC)c(C2CCN(C)CC2)c(O)c1C(=O)/C=C/c1ccccc1F
3. COc1cc(OC)c(C2CCN(C)CC2)c(O)c1C(=O)/C=C/c1ccccc1C
4. COc1cc(OC)c(C2CCN(C)CC2)cc1C(=O)/C=C/c1ccccc1F

[out]
1. > 100 µM
2. > 100 µM
3. 50 µM
4. > 100 µM

Would you be so kind as to report MIC for each listed record?
1. COc1cc(OC)c(C2CCN(C)CC2)c(O)c1C(=O)/C=C/c1ccc(C#N)cc1
2. COc1ccc(C(=O)/C=C/c2ccccn2)c(OC)c1
3. O=C(/C=C/c1ccccc1Cl)c1cccc(N2CCCCC2)c1
4. COc1ccc(C(=O)/C=C/c2ccccc2)c(OC)c1
5. COc1ccc(C(=O)/C=C/c2ccncc2)c(OC)c1 [DILMEFONE]

[out]
["> 100 µM", "> 100 µM", "> 100 µM", "> 100 µM", "> 100 µM"]
